B1: glmS ribozyme (parent)
chain: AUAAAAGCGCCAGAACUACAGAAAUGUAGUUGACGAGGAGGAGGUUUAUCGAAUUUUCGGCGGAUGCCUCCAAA

variants of: B1; test: self-cleavage kobs at 2500 uM GlcN6P; higher = faster cleavage; RNA array; conditions: with glucosamine-6-phosphate
This sample holds only a part of the variants without activity.
Form field: self-cleavage kobs at 2500 uM GlcN6P (one value per entry).

| Entry sequence | Unit of measurement | Comparative sign | self-cleavage kobs at 2500 uM GlcN6P |
| --- | --- | --- | --- |
| AUAAAAGCGUCAGAACUACAGAAAUGUAGUAGACGAGGUGGAGGUUUAUCCAAUUUUCGGCGGAUGCCUCCAAA [C10U U31A A39U G51C] | s⁻¹ | < | 1e-05 |
| AUAAAAGCGCCAGAAUUACAGAAAUGUAGUUGACGAGGAGGUGGUUUAUCGAAGUUUCGGCGGAUGCCUCCAAA [C16U A42U U54G] | s⁻¹ | = | 0.000152 |
| AUAAAAGCGCCAGGACUACAGAAAUGUAUUUGACGAGGAGGAGGUUGAUCGAAUUUUCGGCGGAUGCCUGCAAA [A14G G29U U47G C70G] | s⁻¹ | = | 6.72e-05 |
| AUAAAAGCGCCAGAACUACAGAAAUGUAGUUGACGAGGAGGAGGUUUAUCGAAGUUACGGCGGAUGGCUCCAAA [U54G U57A C67G] | s⁻¹ | = | 7.42e-05 |
| AUAAAAGCGCCAGAACUACAGAAAUGUAGUUGCCGAGGAGGAGGUUUAUCGAAUUUUCGGCGUAUGCCUCCAAA [A33C G63U] | s⁻¹ | < | 1e-05 |
| AUAAAAGCGCCAGAACUACAGAAAUGUAGUUGACGAAGAGGAGGUUGAUCGAAUUUUCGGCGGAUGCCUCCAAA [G37A U47G] | s⁻¹ | = | 0.000274 |
| AUAAAAGCGCCAGAACUACAGAAAUGUAGUUGACGAGGAGGAGGUUUAUUGAAUUUUCGGUGGAUGCCUCCAAA [C50U C61U] | s⁻¹ | < | 1e-05 |
| AUAAAAGCGCCAGAACUACAGAAAUGUAGUUGACGAGGAGGAGUUUUAUCGAAUUUUGGGCGGAUGCUUCCAAA [G44U C58G C68U] | s⁻¹ | < | 1e-05 |
| AUAAAAGCGACAGAACUACAGAAAUGUAGUUGACGAGGAGGAGGUUUGGCGAAUUUUCGGCGGAUGCCUCCAAA [C10A A48G U49G] | s⁻¹ | < | 1e-05 |
| AUAAAAGCGCCAGAACUACAGAAAUGUAGUUGACGAGGAGGAGGUUUAUCGAGGGUUCGGAGGAUGCCUUCAAA [A53G U54G U55G C61A C70U] | s⁻¹ | = | 7.21e-05 |
| AUAAAAGCGCCAGAGCUACAGAAAUGUAGUUGACGAGGAGGAGGUUUAUCGUAUUUUCGGCGGAUGCCUUCAAA [A15G A52U C70U] | s⁻¹ | = | 0.000255 |
